Let's look at some molecules and their measured percent inhibition of viability.
system: normal primary NK cells, pool 3 (3 donors) (IL-2 2.5 ng/mL); test: percent inhibition of viability; higher = more inhibition; conditions: 72 h; 10000 nM
Report the value in % with no unit label.

INSERT INTO assay_data (molecule, meas_value) VALUES
  ('CNC(=O)c1cc(Oc2ccc(NC(=O)Nc3ccc(Cl)c(C(F)(F)F)c3)c(F)c2)ccn1 [Regorafenib] (max concentration tested 10000 nM)', 48.1),
  ('Nc1nccc(-c2c(-c3ccc(F)cc3)ncn2C2CCCCC2)n1 (max concentration tested 10000 nM)', 17);

Let us examine a further case.
Input: Find the measured percent inhibition of viability: item CC[C@H](Nc1ncnc2[nH]cnc12)c1nc2cccc(F)c2c(=O)n1-c1ccccc1 [Idelalisib] (max concentration tested 10000 nM) , target or system normal primary NK cells, pool 3 (3 donors) (IL-2 2.5 ng/mL).
Output: 26.2

----------
test system: normal NK cells expanded with K562-aAPC; test: percent inhibition of viability; higher = more inhibition; settings: 72 h; IL-2 2.5 ng/mL; 2.5 nM
Readout Kind: percent inhibition of viability
Could you write the number and then its unit?

A selection of reference data follows.
INSERT INTO measurements (compound, meas_value) VALUES
  ('CCOc1ccn(-c2ccc(F)cc2)c(=O)c1C(=O)Nc1ccc(Oc2ccnc(N)c2Cl)c(F)c1 (max concentration tested 2500 nM)', '1.6%'),
  ('CCN1CCN(Cc2ccc(Nc3ncc(F)c(-c4cc(F)c5nc(C)n(C(C)C)c5c4)n3)nc2)CC1 [Abemaciclib] (max concentration tested 2500 nM)', '-3.3%');

Input: Would you mind telling me what percent inhibition of viability value was observed for CC(=O)Nc1cccc(-n2c(=O)n(C3CC3)c(=O)c3c(Nc4ccc(I)cc4F)n(C)c(=O)c(C)c32)c1 [Trametinib] (max concentration tested 250 nM) ?
Output: -0.52%

Input: Would you mind telling me what percent inhibition of viability value was observed for COc1ccc(CCc2nc3cc(-c4c(C)noc4C)ccc3n2C[C@H](C)N2CCOCC2)cc1Cl [SGC-CBP30] (max concentration tested 25000 nM) ?
Output: -5.48%

----------
test system: KAI3 (IL-2 2.5 ng/mL); experiment: percent inhibition of viability; higher = more inhibition; conditions: 72 h; 1000 nM
Let's look at some compounds and their measured percent inhibition of viability.
Could you write the number and then its unit?

INSERT INTO assay_data (compound, study_system, readout_kind, meas_value) VALUES
  ('FC(F)c1nc2ccccc2n1-c1nc(N2CCOCC2)nc(N2CCOCC2)n1 [ZSTK474] (max concentration tested 10000 nM)', 'KAI3 (IL-2 2.5 ng/mL)', 'percent inhibition of viability', '43.2%'),
  ('N#Cc1ccc(COC[C@H]2O[C@@H](n3c(NCc4ccc(Cl)c(Cl)c4)nc4c(N)ncnc43)[C@H](O)[C@@H]2O)cc1 (max concentration tested 10000 nM)', 'KAI3 (IL-2 2.5 ng/mL)', 'percent inhibition of viability', '17.5%'),
  ('Nc1nccc(-c2c(-c3ccc(F)cc3)ncn2C2CCCCC2)n1 (max concentration tested 10000 nM)', 'KAI3 (IL-2 2.5 ng/mL)', 'percent inhibition of viability', '90.9%');

Input: Would you mind telling me what percent inhibition of viability value was observed for C[C@]1(c2nc3c(C(N)=O)cccc3[nH]2)CCCN1 [Veliparib] (max concentration tested 10000 nM) ?
Output: 12.1%

Input: Would you mind telling me what percent inhibition of viability value was observed for CS(=O)(=O)OCCCCOS(C)(=O)=O [Busulfan] (max concentration tested 100000 nM) ?
Output: -6.45%

Input: Would you mind telling me what percent inhibition of viability value was observed for C=CC(=O)N1CCC[C@@H](n2nc(-c3ccc(Oc4ccccc4)cc3)c3c(N)ncnc32)C1 [Ibrutinib] (max concentration tested 1000 nM) ?
Output: 20.5%
